Experiment: Cytotoxicity/antiproliferative assay (MTT) on MCF-7
Type: cell-based
Settings: human, MCF-7 cells (breast adenocarcinoma), read-out: Cytotoxicity (% cell viability at 30 µM) MCF-7
recorded_endpoint: viability at 72 h, 30 µM

Some solved cases for reference:
- smiles_string: "CCn1c(O)c(C(c2cccnc2)c2c(O)n(CC)c(=S)n(CC)c2=O)c(=O)n(CC)c1=S"
  viability at 72 h, 30 µM: "93.7%"
- smiles_string: "CCn1c(O)c(C(c2ccc([N+](=O)[O-])cc2[N+](=O)[O-])c2c(O)n(CC)c(=S)n(CC)c2=O)c(=O)n(CC)c1=S"
  viability at 72 h, 30 µM: "91.2%"
- smiles_string: "CCn1c(O)c(C(c2ccc(C#N)cc2)c2c(O)n(CC)c(=S)n(CC)c2=O)c(=O)n(CC)c1=S"
  viability at 72 h, 30 µM: "90.7%"
- smiles_string: "CCn1c(O)c(C(c2ccc(NC(C)=O)cc2)c2c(O)n(CC)c(=S)n(CC)c2=O)c(=O)n(CC)c1=S"
  viability at 72 h, 30 µM: "90.2%"
- smiles_string: "CCn1c(O)c(C(c2ccc(Br)cc2)c2c(O)n(CC)c(=S)n(CC)c2=O)c(=O)n(CC)c1=S"
  viability at 72 h, 30 µM: "92.2%"
- smiles_string: "CCn1c(O)c(C(c2cc3c(cc2[N+](=O)[O-])OCO3)c2c(O)n(CC)c(=S)n(CC)c2=O)c(=O)n(CC)c1=S"
  viability at 72 h, 30 µM: "86.6%"

Pending compound:
Form field: reported viability at 72 h, 30 µM of `CCn1c(O)c(C(c2ccc(C)cc2)c2c(O)n(CC)c(=S)n(CC)c2=O)c(=O)n(CC)c1=S`
90.6%
